Recorded measurements of tissue to tissue ratio at 1 h, one per entry
Assay: Ex vivo biodistribution in PC-3 tumor-bearing mice
Conditions: male, NOD.Cg-Rag1^tm1Mom Il2rg^tm1Wjl/SzJ (NRG), mouse, tumor/pancreas, total radioactivity, Tumor/pancreas uptake ratio, 1 h blocked (co-injected with 100 µg [D-Phe6,Leu-NHEt13,des-Met14]Bombesin(6-14))
Numbered stars: 1 amine (or outer) side, 2 acyl side, 3 side chain; on linkers, the order of the positions; unused ones are H or OH. Square brackets hold non-standard residues; d marks the D form. Peptide text beside a SMILES is read from it. * marks the point of attachment. DOTA = O=C(O)CN1CCN(CC(=O)O)CCN(CC(=O)*)CCN(CC(=O)O)CC1; NMeH = CN[C@@H](Cc1c[nH]cn1)C(=O)O; X1 = O=C(CN1CCC(N[*:1])CC1)[*:2]; Tle = CC(C)(C)[C@H](N)C(=O)O; Thz = O=C(O)[C@@H]1CSCN1
Please reply with the value in numeric form only.

CC(C)C[C@H](NC(=O)[C@H](Cc1cnc[nH]1)N(C)C(=O)CNC(=O)[C@@H](NC(=O)[C@H](C)NC(=O)[C@H](Cc1c[nH]c2ccccc12)NC(=O)[C@H](CCC(N)=O)NC(=O)[C@@H](Cc1ccccc1)NC(=O)CN1CCC(NC(=O)CN2CCN(CC(=O)O)CCN(CC(=O)O)CCN(CC(=O)O)CC2)CC1)C(C)(C)C)C(=O)N1CSC[C@H]1C(N)=O [[^177Lu]Lu-LW01110, metal not drawn]	1.17

Now for a further compound.
Query: Form field: reported tissue to tissue ratio at 1 h of CC(C)C[C@H](NC(=O)[C@H](Cc1cnc[nH]1)N(C)C(=O)CNC(=O)[C@@H](NC(=O)[C@H](C)NC(=O)[C@H](Cc1c[nH]c2ccccc12)NC(=O)[C@H](Cc1c[nH]cn1)NC(=O)[C@@H](Cc1ccccc1)NC(=O)CN1CCC(NC(=O)CN2CCN(CC(=O)O)CCN(CC(=O)O)CCN(CC(=O)O)CC2)CC1)C(C)(C)C)C(=O)N1CSC[C@H]1C(N)=O [[^177Lu]Lu-LW01142, metal not drawn] ({DOTA}-[X1][dF]HWA[Tle]G[NMeH]L[Thz]-NH2)
Response: 2.79

Where do the numbers come from? From paper PMC12030706.
